Assay: NCI Yeast Anticancer Drug Screen. Data for the mlh1 rad18 strain (AID 175)
Conditions: S. cerevisiae mlh1 rad18 strain growth inhibition; at 50.0 µM; active compounds read high
About 79,000 compounds went through this panel and 15% of them were active in at least one assay; those are over-represented in the sample as a whole.
VALUE_KIND: growth inhibition (%)
# value in %; strip the unit string

**Query** Value lookup for growth inhibition; key = Cc1nc(=O)n2c(c1C(=O)Nc1ccc(Cl)cc1)NCC2
**Result** 14.8

**Query** Value lookup for growth inhibition; key = CC(C)=C/C(C)=N/NC(N)=O
**Result** -32.2

* * *

Experiment: NCI Yeast Anticancer Drug Screen. Data for the bub3 strain (AID 167)
Settings: S. cerevisiae bub3 mutant strain, at 50.0 µM, active compounds read high
Compounds without any hit were thinned out: in the full panel of roughly 79,000, 15% have a hit.
VALUE_KIND: growth inhibition (%)
# value in %; strip the unit string

Here's what some known entries look like.
[[record]]
molecule = "O=C(NCc1ccccc1)NCN1CCOCC1"
value_measured = 5.65

[[record]]
molecule = "CC1CCCCN1P(N1CCCCC1C)N1CCCCC1C (centres undefined)"
value_measured = 23.4

[[record]]
molecule = "CC(=O)N(CN1C(=O)CCC1C(=O)O)c1cccc(O)c1 (centres undefined)"
value_measured = -12.7

[[record]]
molecule = "O=NNc1ccc(Sc2ccc(NN=O)nc2)cc1"
value_measured = -3.15

[[record]]
molecule = "N#Cc1ccccc1Br"
value_measured = 11.8


**Query** Value lookup for growth inhibition; key = O=C(O)CC(c1ccccc1)C(CC(=O)O)c1ccccc1.[NH-]C1CCCCC1[NH-].[Pt+2] (centres undefined)
**Result** -36.9

**Query** Value lookup for growth inhibition; key = COc1cc([N+](=O)[O-])ccc1NC(=O)C(Br)C(Br)c1ccccc1 (centres undefined)
**Result** 12.5

* * *

# key: entry, value: growth inhibition
Assay: NCI Yeast Anticancer Drug Screen. Data for the mec2-1 strain (AID 157)
Details: S. cerevisiae mec2-1 strain, at 50.0 µM, active compounds read high
About 79,000 compounds went through this panel and 15% of them were active in at least one assay; those are over-represented in the sample as a whole.
# value in %; strip the unit string

**Query** Value lookup for growth inhibition; key = COc1cc(C(=O)C/C(CCC(=O)Nc2ccc(Cl)cc2Cl)=N/Nc2nnc(C)n2N)ccc1O
**Result** -4.2

**Query** Value lookup for growth inhibition; key = Br/C(=N\Nc1nn[nH]n1)c1ccncc1
**Result** 1.75

**Query** Value lookup for growth inhibition; key = CCNC(=O)NCc1cccc2ccccc12
**Result** -8.15

**Query** Value lookup for growth inhibition; key = Cc1cccc(Cl)c1N=Nc1c(C)nn(C(N)=S)c1C
**Result** 8.75

**Query** Value lookup for growth inhibition; key = O=c1cc(N2CCOCC2)n2c(ccc3ccccc32)n1
**Result** -2.4

**Query** Value lookup for growth inhibition; key = Nc1nc(NC(=O)C2=NS(=O)(=O)c3cc(S(N)(=O)=O)c(Cl)cc3N2)n[nH]1
**Result** -26.2

**Query** Value lookup for growth inhibition; key = CCOC(=O)/C(C#N)=C/c1c[nH]c2ccccc12
**Result** 6.05

**Query** Value lookup for growth inhibition; key = OCc1ccccc1C(c1ccc(O)cc1)c1ccc(O)cc1
**Result** -7.9

**Query** Value lookup for growth inhibition; key = Clc1ccccc1CN1COc2c(ccc3ccccc23)C1
**Result** 14.3

**Query** Value lookup for growth inhibition; key = N#Cc1ccc(Br)cc1
**Result** -3.45

**Query** Value lookup for growth inhibition; key = CC(C)=NNC(=O)c1n[nH]c(C)c1N=NN(C)C
**Result** -23.4

**Query** Value lookup for growth inhibition; key = CC1(C)CN(Cc2ccccc2)C(C)(C)CN1
**Result** -6.65

* * *

Test: NCI Yeast Anticancer Drug Screen. Data for the cln2 rad14 strain (AID 165);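 also: 0% = growth equal to vehicle treated cultures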
Details: S. cerevisiae cln2 rad14 strain, at 50.0 µM
Method: Growth inhibition of yeast strains with defined genetic alterations is measured as a screen for potential anti-cancer activity. Selected strains with alterations in DNA damage repair or cell cycle control were exposed to compounds and growth inhibition was measured relative to vehicle treated controls. The strain used in this assay is cln2 rad14
This is part of a sample that, as a whole, favours compounds with a hit. Of some 79,000 tested, about 15% had one in any assay. Active and inactive are the calls of the source. Rule as the data show it: active = growth inhibition above about 70%; inactive = the rest.
// one of active, inactive, no free text

Sample answers from the record:
[[record]]
compound = "CC(=O)C1C(=O)C(=O)N(c2ccc(S(N)(=O)=O)cc2)C1=O (stereo not given)"
category_label = "inactive"

[[record]]
compound = "CCc1c2c(nc3ccc(O)cc13)-c1cc3c(c(=O)n1C2)COC(=O)[C@]3(O)CC"
category_label = "inactive"

[[record]]
compound = "CS(=O)CC(Nc1ccccc1)c1ccccc1 (stereo not given)"
category_label = "inactive"

[[record]]
compound = "CC(C/C=C(/C=O)C(C)CC(C)(C)C)CC(C)(C)C (stereo not given)"
category_label = "inactive"

[[record]]
compound = "CCOC(=O)C(=[N+]=[N-])C(=O)CN1C(=O)C2CC(C)=C(C)CC2C1O (stereo not given)"
category_label = "inactive"


**Query** Which result was noted for this compound in the test: CN(C)CCCNC(=O)Nc1ccc(Cl)cc1
**Result** inactive

**Query** Which result was noted for this compound in the test: N#Cc1ccccc1Br
**Result** inactive

**Query** Which result was noted for this compound in the test: N#CCCCOc1ccccc1
**Result** inactive

**Query** Which result was noted for this compound in the test: O=c1ccn(C2OC(C(O)CO)C(O)C2O)c(=O)[nH]1 (stereo not given)
**Result** inactive

**Query** Which result was noted for this compound in the test: CC[CH2][Sn]([CH2]CC)([O]C(=O)c1cccnc1SC)[O][Sn]([CH2]CC)([CH2]CC)[O]C(=O)c1cccnc1SC
**Result** active

**Query** Which result was noted for this compound in the test: CCN(CC)CC(C)(C)C(=O)/C=C/c1ccc(OC)cc1
**Result** inactive

**Query** Which result was noted for this compound in the test: O=C(Nc1ccc(Cl)cc1)c1cc2c(cc1Cl)Sc1nccn1S2(=O)=O
**Result** inactive

* * *

Experiment: NCI Yeast Anticancer Drug Screen. Data for the mlh1 rad18 strain (AID 175)
Conditions: S. cerevisiae mlh1 rad18 strain growth inhibition; at 50.0 µM; active compounds read high
This is part of a sample that, as a whole, favours compounds with a hit. Of some 79,000 tested, about 15% had one in any assay.
VALUE_KIND: growth inhibition (%)
# value in %; strip the unit string

Here's what some known entries look like.
[[record]]
compound = "C=CCOc1ccc(S(=O)(=O)c2ccc(OCC=C)cc2)cc1"
value_measured = -4.35

[[record]]
compound = "COC(=O)/C(C)=C/C=C/C(OC)C(OC(N)=O)/C(C)=C/C(C)C(O)C(CC(C)CC1=C(OC)C(=O)C=C(N)C1=O)OC (stereo unspecified)"
value_measured = 13.8

[[record]]
compound = "Cc1cc(S(=O)(=O)Nc2n[nH]c(Nc3ccccc3)n2)c(S)cc1Cl"
value_measured = 19.6


**Query** Value lookup for growth inhibition; key = CC1(c2ccccc2)OCCCO1
**Result** -0.8

**Query** Value lookup for growth inhibition; key = CC(C)C(O)(C(=O)OCC1=CC[N+]2(C)CCC(O)C12)C(C)O (stereo unspecified)
**Result** 1.95

**Query** Value lookup for growth inhibition; key = NC(=O)N/N=C(/c1nc2ccc([N+](=O)[O-])cc2[nH]c1=O)C(O)c1ccco1 (stereo unspecified)
**Result** 3.5

**Query** Value lookup for growth inhibition; key = NC1=NC(=O)C(CC(=O)Nc2ccc(Cl)cc2Cl)S1 (stereo unspecified)
**Result** -5.6

**Query** Value lookup for growth inhibition; key = Cn1c(=O)n2n(c1=O)[C@@H](c1ccccc1)[C@H]2c1ccccc1
**Result** -59.3

**Query** Value lookup for growth inhibition; key = c1cc(-c2nnc(-c3ccncc3)s2)ccn1
**Result** -8.15

**Query** Value lookup for growth inhibition; key = C/C(=N\NC(=S)Nc1ccc(S(=O)(=O)O)cc1)c1ccccn1
**Result** 50.5

**Query** Value lookup for growth inhibition; key = CC1=CC(C)(C)NC(=S)N1C1CCCCC1
**Result** 14.6

* * *

Experiment: NCI Yeast Anticancer Drug Screen. Data for the bub3 strain (AID 167)
Details: S. cerevisiae bub3 mutant strain, at 50.0 µM, active compounds read high
Compounds without any hit were thinned out: in the full panel of roughly 79,000, 15% have a hit.
# key: entry, value: growth inhibition
# value in %; strip the unit string

[[record]]
compound = "O=C1NN2CCCN=C2c2ncccc21"
value_measured = 2.7


**Query** Value lookup for growth inhibition; key = Cc1noc2c1C(=O)CCC2
**Result** 21.2

**Query** Value lookup for growth inhibition; key = CCCCC1NNC(CCCC)NN1 (configuration not stated)
**Result** -6.3

**Query** Value lookup for growth inhibition; key = COc1cc(C(=O)C/C(CCC(=O)Nc2ccc(Cl)cc2Cl)=N/Nc2nnc(C)n2N)ccc1O
**Result** 7.1

**Query** Value lookup for growth inhibition; key = O=C1CCCC(=O)c2c(O)ccc(O)c21
**Result** 10.7

**Query** Value lookup for growth inhibition; key = Cc1[nH]c(-c2ccccc2)c2nc(N(C)C)oc(=O)c12
**Result** 34.1

**Query** Value lookup for growth inhibition; key = O=C(Oc1ccc(-c2ccc([N+](=O)[O-])cc2)cc1)c1ccccc1
**Result** 19.9

**Query** Value lookup for growth inhibition; key = COc1cc2c3c(c1OC)-c1[nH]c4ccccc4c1C1CCCN(CC2)C31 (configuration not stated)
**Result** -16.4

**Query** Value lookup for growth inhibition; key = CC(=O)NCCC(=O)NCCSC(C)=O
**Result** -3.35

**Query** Value lookup for growth inhibition; key = Clc1ccc2cn[nH]c2c1
**Result** -18.9

**Query** Value lookup for growth inhibition; key = O=C(NCCCN1CC2CCCC2C1)C(c1ccccc1)c1ccccc1 (configuration not stated)
**Result** -10.7

**Query** Value lookup for growth inhibition; key = CCSc1cc2c(cc1O)CC[C@@H]1[C@@H]2CC[C@]2(C)[C@@H](O)CC[C@@H]12
**Result** 22.4
